Catalogue of compounds with associated inhibition
# study-system: Sialidase (Clostridium perfringens)
# experimental-conditions: at 1 mM
Report the figure in % without appending any unit label.

Worked set:
Exercise: Query (compound): CC(=O)N[C@H]1[C@H]([C@H](O)[C@H](O)CN=[N+]=[N-])OC(C(=O)O)=C[C@@H]1O ; field requested: inhibition
Key: 89.3

Exercise: Request the reported inhibition associated with CC(=O)N[C@H]1[C@H]([C@H](O)[C@H](O)Cn2cc(C[C@H](N)C(=O)N[C@H](CCC(=O)O)C(N)=O)nn2)OC(C(=O)O)=C[C@@H]1O
Key: 84.6

Exercise: Bench note: what inhibition did CC(=O)N[C@H]1[C@H]([C@H](O)[C@H](O)CO)OC(C(=O)O)=C[C@@H]1O show?
Key: 92.6

Turning to the following compound.
Exercise: Item CC(=O)N[C@H]1[C@H]([C@H](O)[C@H](O)Cn2cc(C[C@H](N)C(=O)O)nn2)OC(C(=O)O)=C[C@@H]1O has what recorded inhibition?
Key: 69.7

---

A collection of molecules and their measured IC50
# study-system: Sialidase B (Streptococcus pneumoniae serotype 4 (strain ATCC BAA-334 / TIGR4), UniProt Q54727)
# Sequence (Q54727 whole entry): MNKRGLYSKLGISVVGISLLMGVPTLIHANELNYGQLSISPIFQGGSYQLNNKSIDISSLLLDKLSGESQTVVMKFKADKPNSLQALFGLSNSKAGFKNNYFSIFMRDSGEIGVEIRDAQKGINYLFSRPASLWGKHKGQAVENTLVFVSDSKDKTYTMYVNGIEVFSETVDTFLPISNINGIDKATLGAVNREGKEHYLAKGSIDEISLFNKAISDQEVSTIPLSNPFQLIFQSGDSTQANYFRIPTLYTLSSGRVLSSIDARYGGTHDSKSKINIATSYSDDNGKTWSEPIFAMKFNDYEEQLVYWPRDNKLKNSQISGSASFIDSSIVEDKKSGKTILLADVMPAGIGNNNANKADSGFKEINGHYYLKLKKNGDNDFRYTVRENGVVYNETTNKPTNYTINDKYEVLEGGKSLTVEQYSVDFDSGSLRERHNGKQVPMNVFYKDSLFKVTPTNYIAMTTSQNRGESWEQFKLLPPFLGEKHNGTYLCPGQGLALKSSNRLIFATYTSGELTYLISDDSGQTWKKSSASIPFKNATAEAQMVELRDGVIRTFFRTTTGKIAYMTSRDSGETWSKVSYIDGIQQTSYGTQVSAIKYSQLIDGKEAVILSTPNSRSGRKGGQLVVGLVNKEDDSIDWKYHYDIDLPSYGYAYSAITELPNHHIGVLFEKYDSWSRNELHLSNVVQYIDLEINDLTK
# measurement-protocol: Inhibition of Streptococcus pneumoniae NanB using Neu5Acalpha2-3GalbetapNP as substrate after 30 mins by colorimetric assay

Sample records with IC50:
Exercise: Which IC50 is listed for CC(=O)N[C@H]1[C@H]([C@H](O)[C@H](O)Cn2cc(C[C@H](N)C(=O)O)nn2)OC(C(=O)O)=C[C@@H]1O ?
Key: > 1000 µM

Exercise: Which value of IC50 has been reported for CC(=O)N[C@H]1[C@H]([C@H](O)[C@H](O)CN=[N+]=[N-])OC(C(=O)O)=C[C@@H]1O in the records?
Key: > 1000 µM

***
Exercise: What measured IC50 goes with CC(=O)N[C@H]1[C@H]([C@H](O)[C@H](O)Cn2cc(C[C@H](N)C(=O)N[C@H](CCC(=O)O)C(N)=O)nn2)OC(C(=O)O)=C[C@@H]1O ?
Key: > 1000 µM

---

# Tested on: Paenarthrobacter ureafaciens
# experimental-conditions: at 1 mM
Measured inhibition, listed per entry.
Just the number please, in %, no unit attached.

Exercise: Tell me the measured inhibition of CC(=O)N[C@H]1[C@H]([C@H](O)[C@H](O)Cn2cc(C[C@H](N)C(=O)N[C@H](CCC(=O)O)C(N)=O)nn2)OC(C(=O)O)=C[C@@H]1O , please.
Key: 96.2

---

# measurement-protocol: Inhibition of Arthrobacter ureafaciens sialidase using Neu5Acalpha2-3GalbetapNP as substrate after 30 mins by colorimetric assay
# Design: species or system Paenarthrobacter ureafaciens
// values below are reported pIC50
On this scale, pIC50 is minus log10 of a concentration expressed in M (mol/L).

Exercise: Reported pIC50 for CC(=O)N[C@H]1[C@H]([C@H](O)[C@H](O)CO)OC(C(=O)O)=C[C@@H]1O : what is it?
Key: 5.09

Exercise: I would be grateful if you could share the reported pIC50 for CC(=O)N[C@H]1[C@H]([C@H](O)[C@H](O)Cn2cc(C[C@H](N)C(=O)N[C@H](CCC(=O)O)C(N)=O)nn2)OC(C(=O)O)=C[C@@H]1O .
Key: 5.73

Exercise: Item under review: CC(=O)N[C@H]1[C@H]([C@H](O)[C@H](O)CN=[N+]=[N-])OC(C(=O)O)=C[C@@H]1O . Reported pIC50?
Key: 6.14
